Attribution: PubChem BioAssay (NCATS)

assay: AP1 Signaling Pathway (AID 357); conditions: ME-180 AP-1-bla reporter, EGF-induced, beta-lactamase ratio, 5 h; at 7.69 µM (top of the series) unless noted;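 further: ME-180 reporter cells stimulated with EGF at its EC50 level; on the % scale 0 is the no-effect control and ±100 the full control effect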
Results filed as inconclusive are left out. Activity calls are given as the source filed them. The call rests on the fitted dose curve; in most records, active means well fitted curve in either direction with a large enough effect (not every such curve was filed as active); inconclusive means small, poorly fitted or top-dose-only effect, or another doubt; inactive means flat fitted curve, though single readings scatter.
Entries and their measured activity change, negative = inhibition follow.

# annotated cases, reported activity change, negative = inhibition shown
givenSmiles	activity change, negative = inhibition
COC(=O)N1CCC2(CCCN(C(c3ccccc3)c3ccccc3)C2)CC1	11.9% (inactive)
CN(C)C(=O)c1ccc(-c2ccc3ncnc(NCc4cccnc4)c3c2)cc1	-3.5% (inactive)
Cc1noc(C)c1C(=O)N1CCC2(CCN(Cc3nccs3)CC2)CC1	11.4% (inactive)

In: Entry COc1ccc(CNc2ncncc2-c2ccc(C(=O)N(C)C)cc2)c(OC)c1 : reported activity change, negative = inhibition = ?
Out: -28.8% (inactive)

In: Entry O=C(c1cccc(F)c1)N1CCC2(CC1)CN(c1ccccn1)C2 : reported activity change, negative = inhibition = ?
Out: 6.77% (inactive)

In: Entry N#Cc1cccc(-c2cncnc2NCc2ccccc2)c1 : reported activity change, negative = inhibition = ?
Out: 1.22% (inactive)

In: Entry O=S(=O)(c1ccccc1)N1CCC2(CCCN(c3ccccc3)C2)CC1 : reported activity change, negative = inhibition = ?
Out: 17.4% (inactive)

---

target: Dual specificity protein kinase CLK4 (Homo sapiens) (UniProt Q9HAZ1); assay: qHTS Assay for Inhibitors of CDC-like Kinase 4 (ADP-Glo Assay) (AID 1771); settings: recombinant CLK4, ADP-Glo luminescence; series mostly up to 80 µM; further: nearly all actives have a fitted effect of over 70% in size; further: potency means the concentration at half of the fitted maximal effect
Sequence (Q9HAZ1 whole entry, looked up): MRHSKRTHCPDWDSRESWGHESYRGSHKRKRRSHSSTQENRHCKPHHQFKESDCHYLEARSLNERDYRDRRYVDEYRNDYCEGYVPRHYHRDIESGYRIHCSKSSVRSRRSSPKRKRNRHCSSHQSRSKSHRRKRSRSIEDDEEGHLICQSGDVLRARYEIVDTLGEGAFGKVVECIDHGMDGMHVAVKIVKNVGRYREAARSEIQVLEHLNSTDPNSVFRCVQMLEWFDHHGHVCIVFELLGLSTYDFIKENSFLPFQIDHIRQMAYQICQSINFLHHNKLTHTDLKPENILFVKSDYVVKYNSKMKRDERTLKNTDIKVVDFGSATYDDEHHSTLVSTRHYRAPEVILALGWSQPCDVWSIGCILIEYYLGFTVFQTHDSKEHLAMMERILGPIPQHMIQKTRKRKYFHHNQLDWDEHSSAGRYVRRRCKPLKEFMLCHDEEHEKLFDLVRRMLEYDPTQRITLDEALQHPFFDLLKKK
Results filed as inconclusive are left out. Calls of active or inactive are those of the source. Calls follow the shape of the dose curve; as a rule, active = well fitted inhibition curve with a large enough effect; inconclusive = small, poorly fitted or top-dose-only effect; inactive = flat fitted curve, though single readings scatter.
measuredAttribute: Potency

# annotated cases, reported Potency shown
givenSmiles	Potency
c1nc(NCCN2CCOCC2)c2cc(-c3ccoc3)ccc2n1	0.891 µM (active)
CN(C)C(=O)c1ccc(-c2ccc3ncnc(NCc4cccs4)c3c2)cc1	7.08 µM (active)
COc1ccc(-n2c(=O)c(C)nc3cnc(N4CCOCC4)nc32)cc1	inactive
COc1cccc(Cn2c(=O)c(-c3cc(F)cc(F)c3)nc3cnc(N4CCNCC4)nc32)c1	inactive
COc1ccc(Oc2ncc3nc(-c4cccc(C#N)c4)c(=O)n(C)c3n2)cc1	inactive

In: Entry Fc1ccc(Nc2ncnc3ccc(-c4ccoc4)cc23)cc1 : reported Potency = ?
Out: 0.708 µM (active)

In: Entry Cc1ccccc1-c1cncnc1NCc1cccnc1 : reported Potency = ?
Out: inactive

In: Entry CN(C)c1ncc2nc(-c3ccc(Cl)cc3)c(=O)n(C[C@H]3CCCO3)c2n1 : reported Potency = ?
Out: inactive

In: Entry CC(=O)NCCNc1ncnc2ccc(-c3ccccc3Cl)cc12 : reported Potency = ?
Out: 15.8 µM (active)

In: Entry COc1ccccc1CNc1ccnc(-c2ccccc2OC)n1 : reported Potency = ?
Out: inactive

In: Entry COCCn1c(=O)c(CCc2ccccc2)nc2cnc(Nc3ccccc3)nc21 : reported Potency = ?
Out: inactive

In: Entry Cc1cnc(CNc2cc(-c3cccnc3)ncn2)cn1 : reported Potency = ?
Out: 31.6 µM (active)

In: Entry Cn1cc(-c2nc3cncnc3n(Cc3ccccc3Cl)c2=O)c2ccccc21 : reported Potency = ?
Out: inactive

In: Entry COc1ccccc1CNc1ccnc(-c2ccccc2CN(C)C)n1 : reported Potency = ?
Out: inactive

In: Entry c1ccc(CNc2ncnc3ccc(-c4ccoc4)cc23)cc1 : reported Potency = ?
Out: 12.6 µM (active)

In: Entry N#Cc1ccccc1-c1ccc2ncnc(NCc3ccccc3)c2c1 : reported Potency = ?
Out: 7.94 µM (active)

In: Entry Cc1cccc(CNc2ncncc2-c2cccnc2)c1 : reported Potency = ?
Out: inactive

In: Entry COc1cccc(-c2nc(NCc3cccs3)c3ccccc3n2)c1 : reported Potency = ?
Out: 15.8 µM (active)

In: Entry COc1ccc(-c2nc3cnc(OC)nc3n(C[C@H]3CCCO3)c2=O)cc1 : reported Potency = ?
Out: inactive

In: Entry COc1ccc(-c2nc3cnc(N(C)C)nc3n(Cc3ccc(F)cc3)c2=O)cc1 : reported Potency = ?
Out: inactive

---

experiment: qHTS Assay for Identification of Small Molecule Agonists for Hypoxia Response Element Signaling Pathway (AID 914); settings: ME-180 (cervical carcinoma) HRE-bla reporter, beta-lactamase ratio, CoCl2, 17 h; further: potency means the concentration at half of the fitted maximal effect
Inconclusive results are not listed. The source made the active and inactive calls. The call rests on the fitted dose curve; in most records, active means well fitted activation curve with a large enough effect in the signal ratio, with a control signal flat (not every such curve was filed as active); inconclusive means small, poorly fitted or top-dose-only effect, or effect the other way, or a change in a side signal; inactive means flat fitted curve, though single readings scatter; the % refers to the signal ratio.
Entries and their measured Potency follow.

# annotated cases, reported Potency shown
givenSmiles	result
CCNc1ncc2nc(-c3ccc(Cl)cc3)c(=O)n(C3CC3)c2n1	398 nM (active)
O=c1c(-c2ccc(F)cc2)nc2cnc(N3CCOCC3)nc2n1-c1ccccc1	1260 nM (active)
COCCn1c(=O)c(-c2cccs2)nc2cnc(N3CCN(C)CC3)nc21	2510 nM (active)

Kindly review the next compound as well.
In: Entry COc1cccc(Cn2c(=O)c(-c3ccc(F)cc3)nc3cnc(N4CCOCC4)nc32)c1 : reported Potency = ?
Out: 3160 nM (active)

---

target: Cytochrome P450 1A2 (Homo sapiens); assay: p450-cyp1a2 (AID 410); conditions: recombinant CYP1A2, luciferin-ME demethylation, luminescence; series mostly up to 57 µM
Results filed as inconclusive are left out. The source made the active and inactive calls. Calls follow the shape of the full dose curve.
// one of class 1 (active), class 0 (inactive), no free text

givenSmiles	assignedCategory
COCC(=O)N1CCC2(CCCN(Cc3nccs3)C2)CC1	class 0
COc1cccc(-c2nccc(N(C)Cc3ccco3)n2)c1	class 1
O=c1c(-c2ccc(F)cc2)nc2cnc(N3CCOCC3)nc2n1C1CC1	class 0
COc1ccc(NC(=O)N2CCC3(CC2)CCN(C(=O)c2cccc(F)c2)CC3)cc1	class 0
Cc1ccccc1-c1cncnc1Nc1ccccc1	class 1
Cn1cccc1C(=O)N1CCC2(CCCN(c3ccccn3)C2)CC1	class 1
N#Cc1cccc(NC(=O)N2CC[C@@]3(CCCN(C(=O)c4ccco4)C3)C2)c1	class 0
COCCn1c(=O)c(-c2cccs2)nc2cnc(OC)nc21	class 1

In: Please indicate how the test categorized COc1cccc(Cn2c(=O)c(CCc3ccccc3)nc3cnc(N4CCNCC4)nc32)c1 .
Out: class 1

In: Please indicate how the test categorized Cc1noc(C)c1C(=O)N1CCC2(CC1)CCN(c1ccncc1)CC2 .
Out: class 0

---

Entries and their measured activity, negative = inhibition follow.
assay: qHTS profiling for inhibitors of Plasmodium falciparum proliferation (AID 504749);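 further: 0% = DMSO vehicle and full inhibition = artemisinin control; nearly all actives have a fitted effect of over 60% in size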; settings: P. falciparum in erythrocytes, SYBR Green DNA, 72 h; at 28.7 µM (top of the series); parasite line B
Results filed as inconclusive are left out.
Output spec: scalar in %, unitless text.

# annotated cases, reported activity, negative = inhibition shown
molecule	activity, negative = inhibition, %
CCN[C@@H]1C[C@H](C)S(=O)(=O)c2sc(S(N)(=O)=O)cc21	9.64
CCCN(CCC)C(=O)[C@@H](CCC(=O)O)NC(=O)c1ccccc1	7.29
C[C@H](NCCc1ccc(O)cc1)[C@@H](O)c1ccc(O)cc1	6.27
CC[C@H](NC(C)C)[C@H](O)c1ccc(O)c(O)c1	-2.19
O=C(Cc1cccs1)NC1C(=O)N2C(C(=O)[O-])=C(C[n+]3ccccc3)CSC12 (centres undefined)	-24.5
CC1(C)S[C@@H]2[C@H](NC(=O)[C@H](C(=O)O)c3ccsc3)C(=O)N2[C@H]1C(=O)O	17.9
CC(C)NC[C@H](O)c1cc(O)cc(O)c1	4.36
O=c1[nH]cnc2c1ncn2C1OC(CO)C(O)C1O (centres undefined)	13.3

Kindly review the next molecule as well.
In: Entry N[C@@H](CO)C(=O)NNCc1ccc(O)c(O)c1O : reported activity, negative = inhibition = ?
Out: 19.7

---

target: Cytochrome P450 1A2 (Homo sapiens); assay: p450-cyp1a2 (AID 410); details: recombinant CYP1A2, luciferin-ME demethylation, luminescence; series mostly up to 57 µM
Inconclusive results are not listed. The source made the active and inactive calls. Calls come from the whole dose curve.
// one of label 1 = active, label 0 = inactive, no free text

Worked examples follow.
givenSmiles	experimentalTarget	assignedCategory
COc1ccccc1CNc1ncncc1-c1ccccc1C	Cytochrome P450 1A2 (Homo sapiens)	label 1
Cn1cccc1C(=O)N1CCC2(CCCN(c3cccc(-c4ccccc4)c3)C2)CC1	Cytochrome P450 1A2 (Homo sapiens)	label 1
C/C=C\C(=O)N(CC)c1ccccc1C	Cytochrome P450 1A2 (Homo sapiens)	label 0
CNc1nc(-c2ccccc2C)nc2ccccc12	Cytochrome P450 1A2 (Homo sapiens)	label 1
CCNc1ncc2nc(-c3cn(C)c4ccccc34)c(=O)n(CCC#N)c2n1	Cytochrome P450 1A2 (Homo sapiens)	label 1

As a next step, examine the molecule that follows.
In: Please indicate how the test categorized COc1ncc2ncc(=O)n(Cc3ccc(F)cc3)c2n1 .
Out: label 1

---

tested on: CP305; assay: qHTS profiling for inhibitors of Plasmodium falciparum proliferation (AID 504749);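 further: 0% = DMSO vehicle and full inhibition = artemisinin control; nearly all actives have a fitted effect of over 60% in size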; details: P. falciparum in erythrocytes, SYBR Green DNA, 72 h; series mostly up to 12.8 µM
Inconclusive results are not listed. Active and inactive are the calls of the source. Calls come from the whole dose curve; as a rule, active = well fitted inhibition curve with a large enough effect; inconclusive = small, poorly fitted or top-dose-only effect; inactive = flat fitted curve, though single readings scatter.
// one of active, inactive, no free text

Worked examples follow.
molecule	assignedCategory
C[C@@H](CN(C)C)CN1c2ccccc2CCc2ccccc21	inactive
COCCc1ccc(OC[C@H](O)CNC(C)C)cc1	inactive
CC1(C)Oc2ccc(C#N)cc2[C@H](N2CCCC2=O)[C@H]1O	inactive

In: Please indicate how the test categorized CC(=O)N(CC(O)CN(C(C)=O)c1c(I)c(C(=O)NC[C@@H](O)CO)c(I)c(C(=O)NC[C@@H](O)CO)c1I)c1c(I)c(C(=O)NC[C@@H](O)CO)c(I)c(C(=O)NC[C@@H](O)CO)c1I .
Out: inactive

In: Please indicate how the test categorized C[N+]1(C)CCC[C@@H](OC(=O)C(O)(c2ccccc2)c2ccccc2)C1 .
Out: inactive

In: Please indicate how the test categorized CC1(C)O[C@@H]2C[C@H]3[C@H]4C[C@H](F)C5=CC(=O)C=C[C@@]5(C)[C@@H]4[C@H](O)C[C@]3(C)[C@]2(C(=O)CO)O1 .
Out: inactive
